# Test system: Caco-2 cells
pIC50: −log10 of the molar value.

compound | pIC50
NCC(=O)N1CCC[C@H]1C(=O)N[C@@H](CCC(=O)O)C(=O)O [GPE, glycyl-prolyl-glutarnate] | ≤ 1.82

* * *

# test: in vitro
# assay_conditions: human, Caco-2

compound | inhibition at 15 mM / %
NCC(=O)N1CCC[C@H]1C(=O)N[C@@H](CCC(=O)O)C(=O)O [GPE, glycyl-prolyl-glutarnate] | 35

* * *

# System: Caco-2 cells
# test: Cytotoxicity: sulforhodamine B (SRB) growth inhibition of Caco-2 cells
# assay_conditions: read-out: IC50 of G-2MePE, growth of Caco-2 cells; 48 hours
Square brackets hold non-standard residues; d marks the D form. Peptide text beside a SMILES is read from it. αMeP = C[C@@]1(C(=O)O)CCCN1
property: IC50 (mM)

molecule | unit_label | recorded_measurement
C[C@@]1(C(=O)N[C@@H](CCC(=O)O)C(=O)O)CCCN1C(=O)CN [Formulation G-2MePE, Glycyl-2-Methylprolyl Glutamate] (H-Gly-[αMeP]-Glu-OH) | mM | 3.66

Taken from patent US8496963B2.
